The molecules listed here are annotated with their pIC50.
# system name: KRAS G12C (Homo sapiens (Human), UniProt P01116, C118A/G12C)
# Sequence (P01116 other isoform, or with tags, fused parts or gaps G12C/C118A): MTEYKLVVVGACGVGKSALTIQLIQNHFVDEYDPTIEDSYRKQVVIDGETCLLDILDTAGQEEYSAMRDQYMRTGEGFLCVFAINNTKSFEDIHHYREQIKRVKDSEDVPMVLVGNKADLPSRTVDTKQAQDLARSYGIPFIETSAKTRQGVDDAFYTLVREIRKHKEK
# run description: 2 h coupled exchange assay
# Format: biochemical
# particulars: Avg 2 h Coupled exchange IC50, 2 h compound pre-incubation
pIC50: −log10 of the molar value.
metric name: pIC50

[[record]]
molecule = "C=CC(=O)N1CC2(CCN(c3nc4c(c(-c5ccccc5F)c3C#N)CCC(c3scnc3COC)=C4)C2)C1"
system_name = "KRAS G12C (Homo sapiens (Human), UniProt P01116, C118A/G12C)"
result_value = 6.96

[[record]]
molecule = "C=CC(=O)N1CC2(CCN(c3nc4c(c(-c5cccc6c5NCCC6)c3C)CCN(C(C)C)C4)C2)C1"
system_name = "KRAS G12C (Homo sapiens (Human), UniProt P01116, C118A/G12C)"
result_value = 6.00

[[record]]
molecule = "C=CC(=O)N1CC2(CCN(c3nc4c(c(-c5cc(O)ccc5Cl)c3C#N)CCN(c3scnc3C)C4)C2)C1 [Example 21-13]"
system_name = "KRAS G12C (Homo sapiens (Human), UniProt P01116, C118A/G12C)"
result_value = 7.85

[[record]]
molecule = "C=CC(=O)N1CC2(CCN(c3nc4cc(-c5ccnn5C)ccc4c(-c4c(O)cccc4F)c3C)C2)C1"
system_name = "KRAS G12C (Homo sapiens (Human), UniProt P01116, C118A/G12C)"
result_value = 6.59

[[record]]
molecule = "C=CC(=O)N1CC2(CCN(c3nc4c(c(-c5cc(O)ccc5C)c3F)COC(C)(C)C4)C2)C1 (single isomer, unassigned) [Example 14-61]"
system_name = "KRAS G12C (Homo sapiens (Human), UniProt P01116, C118A/G12C)"
result_value = 4.11

[[record]]
molecule = "C=CC(=O)N1CC2(CCN(c3nc4c(c(-c5cc(O)cc6ccccc56)c3C)COC(C)(C)C4)C2)C1 (single isomer, unassigned) [Example 14-35]"
system_name = "KRAS G12C (Homo sapiens (Human), UniProt P01116, C118A/G12C)"
result_value = 5.25

[[record]]
molecule = "C=CC(=O)N1CC2(CCN(c3nc4c(c(-c5cc(O)ccc5C)c3F)COC(C)(C)C4)C2)C1 [Example 14-53]"
system_name = "KRAS G12C (Homo sapiens (Human), UniProt P01116, C118A/G12C)"
result_value = 6.44

[[record]]
molecule = "C=CC(=O)N1CC2(CCN(c3nc4c(c(-c5c(C)cccc5F)c3C#N)CCC(c3scnc3C)=C4)C2)C1"
system_name = "KRAS G12C (Homo sapiens (Human), UniProt P01116, C118A/G12C)"
result_value = 6.95

[[record]]
molecule = "C=CC(=O)N1CC2(CCN(c3nc4c(c(-c5cccc6cc(O)ccc56)c3C)CCN(C(C)=O)C4)C2)C1"
system_name = "KRAS G12C (Homo sapiens (Human), UniProt P01116, C118A/G12C)"
result_value = 6.59

[[record]]
molecule = "C=CC(=O)N1CC2(CCN(c3nc4cc(-c5ccnn5C)ccc4c(-c4cc(O)ccc4F)c3C)C2)C1"
system_name = "KRAS G12C (Homo sapiens (Human), UniProt P01116, C118A/G12C)"
result_value = 6.46

[[record]]
molecule = "C=CC(=O)N1CC2(CCN(c3nc4cc(-c5scnc5C)ccc4c(-c4c(O)cccc4F)c3C#N)C2)C1 (single isomer, unassigned) [Example 19-4]"
system_name = "KRAS G12C (Homo sapiens (Human), UniProt P01116, C118A/G12C)"
result_value = 7.42

[[record]]
molecule = "C=CC(=O)N1CC2(CCN(c3nc4c(c(-c5c(C)ccc(OC)c5N)c3C#N)COC(C)(C)C4)C2)C1"
system_name = "KRAS G12C (Homo sapiens (Human), UniProt P01116, C118A/G12C)"
result_value = 6.67

[[record]]
molecule = "C=CC(=O)N1CC2(CCN(c3nc4cc(OC)ccc4c(-c4c(C)ccc5[nH]ncc45)c3C#N)C2C)C1 (stereo not drawn)"
system_name = "KRAS G12C (Homo sapiens (Human), UniProt P01116, C118A/G12C)"
result_value = 6.95

[[record]]
molecule = "C=CC(=O)N1CC2(CCN(c3nc4c(c(-c5c(C)c(Cl)cc6cnn(C)c56)c3F)CCN(C3COC3)C4)C2)C1 (atropisomer, axis not shown; (M))"
system_name = "KRAS G12C (Homo sapiens (Human), UniProt P01116, C118A/G12C)"
result_value = 7.89

[[record]]
molecule = "C=CC(=O)N1CC2(CCN(c3nc4cc(-c5scnc5CO)cnc4c(-c4ccccc4F)c3C#N)C2)C1"
system_name = "KRAS G12C (Homo sapiens (Human), UniProt P01116, C118A/G12C)"
result_value = 6.95

